system: clot lysis (fibrinolysis) in diluted human citrated plasma, tPA-induced; assay: Plasma-based clot lysis assay (5%); type: biochemical; details: human citrated platelet-poor plasma 5%, fibrinogen 3 μM, CaCl2 10 mM, tPA 0.2 nM, 37° C., OD at 405 nm; hydrochloride
pIC50: −log10 of the molar value. Structures can show the parent of a compound that is named as a salt.
quantity: pIC50

[
  {
    "compound": "CCc1noc(-c2cnn3c(C4CCNCC4)cc(=O)[nH]c23)n1 [Example 199, hydrochloride]",
    "reported-measurement": 7.47
  }
]
